Target: T1, human IL-1α (human, UniProt P01583 113-271)
T1 sequence (looked up): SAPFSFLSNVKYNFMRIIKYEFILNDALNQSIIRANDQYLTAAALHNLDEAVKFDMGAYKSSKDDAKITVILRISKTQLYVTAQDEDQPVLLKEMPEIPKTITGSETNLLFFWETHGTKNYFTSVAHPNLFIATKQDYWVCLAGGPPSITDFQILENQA
Assay: cell-based or functional assay
ASSAY_ENDPOINT: ND50 (nM)

>>> observed("ABT1-95-34 (other, VK dAb) VL: DIQMTQSPSSLSASVGDRVTITCRASAPIVRNLRWYQQKPGKAPKLLIYSSSYLEPGVPSRFSGSGSGTDFTLTISSLQPEDFATYHCQQGYRWPVTFGQGTKVEIKR")
1

[P] ABT1-161 (other, VK dAb) VL: DIQMTQSPSSLSASVGDRVTITCRASHAITGSLRWYQQKPGKAPKLLISGGSVLQSGVPSRFSGSGSGTDFTLTISSLQPEDFATYYCAQWLGGPMTFGQGTKVEIKR
[Q] ABT1-221 (other) VL: DIQMTQSPSSLSASVGDRVTITCRASQDIWPYLMWYQQKPGKAPKLLIYYSSMLQSGVPSRFSGSGSGTDFTLTISSLQPEDFATYYCQQFRRWPYTFGQGTKVEIKR
[R] ABT1-141-43 (other, VK dAb) VL: DIQMTQSPSSLSASVGDRVTITCRASQWIQKQLAWYQQKPGKAPKLLIYSSSYLQSGVPPRFSGSGSGTDFTLTISSLQPEDFATYYCQQHLRVPMTFGQGTKVEIKR
Task: List these items ordered by ND50, big to small. Write the labels in rank order as requested.
Output: Q, P, R
(Q: 100 nM, P: 8 nM, R: 5 nM)
